Test system: rice
Experiment: Low temperature assay on rice seedlings
Assay type: in vivo
Conditions: 1 mg/l, 5 °C, 6 days
READOUT: Weight of root (g)
Form entry: value (g) — number only.

Entry CC[C@@H](C(C)C)[C@@H](O)[C@H](O)[C@@H](C)[C@H]1CCC2C3COC(=O)C4C[C@H](O)[C@H](O)C[C@]4(C)C3CC[C@@]21C (stereo partly drawn) ; Weight of root = 3.5

Entry CC(C)C[C@@H](O)[C@H](O)[C@@H](C)[C@H]1CCC2C3CC(=O)C4C[C@H](O)[C@H](O)C[C@]4(C)C3CC[C@@]21C (stereo partly drawn) ; Weight of root = 3.5

Entry CC(C)[C@H](C)[C@@H](O)[C@H](O)[C@@H](C)[C@H]1CCC2C3CC(=O)C4C[C@H](O)CC[C@]4(C)C3CC[C@@]21C (stereo partly drawn) ; Weight of root = 3.5

Entry C=C(C(C)C)[C@@H](O)[C@H](O)[C@@H](C)[C@H]1CCC2C3COC(=O)C4C[C@H](O)[C@H](O)C[C@]4(C)C3CC[C@@]21C (stereo partly drawn) ; Weight of root = 3.5

Entry CC(C)[C@H](C)[C@@H](O)[C@H](O)[C@@H](C)[C@H]1CCC2C3COC(=O)C4C[C@H](O)[C@H](O)C[C@]4(C)C3CC[C@@]21C (stereo partly drawn) ; Weight of root = 3.5

Entry CC(C)(O)CC[C@@H](O)[C@](C)(O)[C@H]1CC[C@@]2(O)[C@@H]3CC(=O)[C@@H]4C[C@@H](O)[C@@H](O)C[C@]4(C)[C@H]3CC[C@]12C ; Weight of root = 3.6

====

System: rice
Assay: Low temperature assay on rice seedlings
Assay type: in vivo
Settings: 0.01 mg/l, 4 °C, 6 days
READOUT: Weight of root
Report the figure along with its unit, number first.

Entry CC(C)C[C@@H](O)[C@H](O)[C@@H](C)[C@H]1CCC2C3CC(=O)C4C[C@H](O)[C@H](O)C[C@]4(C)C3CC[C@@]21C (stereo partly drawn) ; Weight of root = 2.6 g

Entry CC[C@@H](C(C)C)[C@@H](O)[C@H](O)[C@@H](C)[C@H]1CCC2C3COC(=O)C4C[C@H](O)[C@H](O)C[C@]4(C)C3CC[C@@]21C (stereo partly drawn) ; Weight of root = 2.6 g

Entry CC(C)[C@H](C)[C@@H](O)[C@H](O)[C@@H](C)[C@H]1CCC2C3COC(=O)C4C[C@H](O)[C@H](O)C[C@]4(C)C3CC[C@@]21C (stereo partly drawn) ; Weight of root = 2.6 g

Entry CC(C)(O)CC[C@@H](O)[C@](C)(O)[C@H]1CC[C@@]2(O)[C@@H]3CC(=O)[C@@H]4C[C@@H](O)[C@@H](O)C[C@]4(C)[C@H]3CC[C@]12C ; Weight of root = 2.6 g

Entry C=C(C(C)C)[C@@H](O)[C@H](O)[C@@H](C)[C@H]1CCC2C3COC(=O)C4C[C@H](O)[C@H](O)C[C@]4(C)C3CC[C@@]21C (stereo partly drawn) ; Weight of root = 2.6 g

Entry CC(C)[C@H](C)[C@@H](O)[C@H](O)[C@@H](C)[C@H]1CCC2C3CC(=O)C4C[C@H](O)CC[C@]4(C)C3CC[C@@]21C (stereo partly drawn) ; Weight of root = 2.7 g
